All values here come from patent US20230233569A1.

I'd be grateful if you could share measured pIC50 for these entries.
System: Capan-1 (K-Ras G12V)
assay overview: CellTiter-Glo cell viability assay, 5-day treatment
Type: cell-based
test parameters: Homo sapiens, CAPAN-1, 120 h, 5-day treatment; read-out: Capan-1 Cell Viability assay data (K-Ras G12V, IC50)
Method: Protocol: CellTiter-Glo® Cell Viability Assay Note—The following protocol describes a procedure for monitoring cell viability of K-Ras mutant cancer cell lines in response to a compound of the invention. […] Test compounds (132.5 nL) were directly dispensed into the assay plates containing cells. […] Luminescence was measured using the PerkinElmer Enspire. […] Test compounds (132.5 nl) were directly dispensed into the assay plates containing cells. […] Luminescence was measured using the PerkinElmer Enspire. […]
pIC50: −log10 of the molar value.

1) CCn1c(-c2cccnc2[C@H](C)OC)c2c3cc(ccc31)-c1csc(n1)C[C@H](NC(=O)[C@H](C(C)C)N(C)C(=O)N1CCOC[C@@H]1CN(C)C)C(=O)N1CCC[C@H](N1)C(=O)OCC(C)(C)C2 [Example A572] : 5.00 to 6.00

// moving on: another record for pIC50
[ask] Field request: pIC50 | item: CCn1c(-c2cccnc2[C@H](C)OC)c2c3cc(ccc31)-c1csc(n1)C[C@H](NC(=O)[C@H](C(C)C)N(C)C(=O)N1CCC[C@H]1CN(C)C)C(=O)N1CCC[C@H](N1)C(=O)OCC(C)(C)C2 [Example A519]
[reply] 5.00 to 6.00

----------
I'd be grateful if you could share measured IC50 for these entries.
system tested: KRAS G12V (Homo sapiens, UniProt P01116+P62937, G12V)
Sequence (P01116 1-169 isoform P01116-2 G12V limits assumed): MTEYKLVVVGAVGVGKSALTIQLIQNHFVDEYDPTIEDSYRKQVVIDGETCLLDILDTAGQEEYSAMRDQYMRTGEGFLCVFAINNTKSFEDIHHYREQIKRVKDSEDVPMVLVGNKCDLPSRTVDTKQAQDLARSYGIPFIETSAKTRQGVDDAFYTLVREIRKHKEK
Sequence (P62937 whole entry): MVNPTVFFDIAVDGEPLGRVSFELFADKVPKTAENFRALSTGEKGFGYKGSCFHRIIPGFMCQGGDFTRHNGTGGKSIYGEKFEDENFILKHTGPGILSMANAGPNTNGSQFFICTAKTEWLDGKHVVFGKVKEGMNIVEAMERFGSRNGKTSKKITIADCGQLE
assay overview: Disruption of BRAF RBD interaction with Ras (FRET / MOA assay, with Cyclophilin A)
Assay type: biochemical
test parameters: KRAS G12V; read-out: KRAS G12V FRET data IC50
Description: This protocol may also be executed substituting other Ras proteins or nucleotides. The purpose of this biochemical assay was to measure the ability of test compounds to facilitate ternary complex formation between a nucleotide-loaded K-Ras isoform and Cyclophilin A; the resulting ternary complex disrupts binding to a BRAF^RBD construct, inhibiting K-Ras signaling through a RAF effector. Data is reported as IC50 values. […]

Before answering, review these 8 worked examples.
1) CCn1c(-c2cccnc2[C@H](C)OC)c2c3cc(ccc31)-c1csc(n1)C[C@H](NC(=O)[C@H](C(C)C)N(C)C(=O)N1C[C@H](N)[C@@H](F)C1)C(=O)N1CCC[C@H](N1)C(=O)OCC(C)(C)C2 (atropisomer, axis not shown) [Example A567] : 0.1 to 1 µM
2) CCn1c(-c2cccnc2[C@H](C)OC)c2c3cc(ccc31)-c1cc(O)cc(c1)C[C@H](NC(=O)[C@H](C(C)C)N(C)C(=O)N1CC(N(C)C)C1)C(=O)N1CCC[C@H](N1)C(=O)OCC(C)(C)C2 [Example A171] : 0.1 to 1 µM
3) CCn1c(-c2cccnc2[C@H](C)OC)c2c3cc(ccc31)-c1csc(n1)C[C@H](NC(=O)[C@H](C(C)C)N(C)C(=O)N1[C@@H](C)CN(C)C[C@@H]1C)C(=O)N1CCC[C@H](N1)C(=O)OCC(C)(C)C2 [Example A609] : 1 to 10 µM
4) C=CC(=O)N1CC[C@H](C(=O)N(C)[C@H](C(=O)N[C@H]2Cc3cc(O)cc(c3)-c3ccc4c(c3)c(c(-c3cccnc3[C@H](C)OC)n4C)CC(C)(C)COC(=O)[C@@H]3CCCN(N3)C2=O)C(C)C)C1 [Example A197] : 1 to 10 µM
5) C=CC(=O)N1CC[C@H](C(=O)N(C)[C@H](C(=O)N[C@H]2Cc3cc(O)cc(c3)-c3ccc4c(c3)c(c(-c3ccncc3)n4C(C)(C)C#N)CC(C)(C)COC(=O)[C@@H]3CCCN(N3)C2=O)C(C)C)C1 [Example A086] : 0.1 to 1 µM
6) CCn1c(-c2cccnc2[C@H](C)OC)c2c3cc(ccc31)-c1cc(O)cc(c1)C[C@H](NC(=O)[C@H](C(C)C)N(C)C(=O)[C@H]1CCCN[C@@H]1C)C(=O)N1CCC[C@H](N1)C(=O)OCC(C)(C)C2 [Example A134] : 1 to 10 µM
7) C=CC(=O)N1CC[C@]2(C1)OCN(C(=O)N(C)[C@H](C(=O)N[C@H]1Cc3cccc(n3)-c3ccc4c(c3)c(c(-c3cccnc3[C@H](C)OC)n4CC)CC(C)(C)COC(=O)[C@@H]3CCCN(N3)C1=O)C(C)C)C2=O (atropisomer, axis not shown) [Example A652] : 1 to 10 µM
8) CCn1c(-c2cccnc2[C@H](C)OC)c2c3cc(ccc31)-c1csc(n1)C[C@H](NC(=O)[C@H](C(C)C)N(C)C(=O)N1CCC[C@@H](N(C)C)C1)C(=O)N1CCC[C@H](N1)C(=O)OCC(C)(C)C2 (atropisomer, axis not shown) [Example A531] : 0.1 to 1 µM

Give IC50 for each of the items listed below.
1. CCn1c(-c2cccnc2[C@H](C)OC)c2c3cc(ccc31)-c1csc(n1)C[C@H](NC(=O)[C@H]1C[C@@H]1C)C(=O)N1CCC[C@H](N1)C(=O)OCC(C)(C)C2 [Example A286]
2. CCN(C(=O)N(C)[C@H](C(=O)N[C@H]1Cc2nc(cs2)-c2ccc3c(c2)c(c(-c2cccnc2[C@H](C)OC)n3CC)CC(C)(C)COC(=O)[C@@H]2CCCN(N2)C1=O)C(C)C)C1CC1 [Example A352]
3. CCn1c(-c2cccnc2[C@H](C)OC)c2c3cc(ccc31)-c1csc(n1)C[C@H](NC(=O)[C@H](C(C)C)N(C)C(=O)N1CCOC[C@@H]1c1ccccc1)C(=O)N1CCC[C@H](N1)C(=O)OCC(C)(C)C2 [Example A604]

[reply]
1: 0.1 to 1 µM; 2: 0.1 to 1 µM; 3: 1 to 10 µM

Give IC50 for each of the items listed below.
1. CCn1c(-c2cc(C3CCN(C)CC3)cnc2[C@H](C)OC)c2c3cc(ccc31)-c1cc(O)cc(c1)C[C@H](NC(=O)[C@H](C(C)C)N(C)C(=O)[C@@H]1OCC[C@@H]1c1ccccc1)C(=O)N1CCC[C@H](N1)C(=O)OCC(C)(C)C2 (atropisomer, axis not shown) [Example A577]
2. CCn1c(-c2cccnc2[C@H](C)OC)c2c3cc(ccc31)-c1csc(n1)C[C@H](NC(=O)[C@H](C(C)C)N(C)C(=O)N1C3CC1CN(C)C3)C(=O)N1CCC[C@H](N1)C(=O)OCC(C)(C)C2 [Example A541]
3. CCn1c(-c2cccnc2[C@H](C)OC)c2c3cc(ccc31)-c1cc(O)cc(c1)C[C@H](NS(=O)(=O)N1CCN(C)CC1)C(=O)N1CCC[C@H](N1)C(=O)OCC(C)(C)C2 (racemic) [Example A193]
4. C=CC(=O)N1CC(NC[C@H](C(=O)N[C@H]2Cc3cc(O)cc(c3)-c3ccc4c(c3)c(c(-c3cccnc3COC)n4CC)CC(C)(C)COC(=O)[C@@H]3CCCN(N3)C2=O)C(C)C)C1 [Example A174]
5. CCn1c(-c2cccnc2[C@H](C)OC)c2c3cc(ccc31)-c1csc(n1)C[C@H](NC(=O)[C@H](C(C)C)N(C)C(=O)N1CC[C@@H]1CN(C)C)C(=O)N1CCC[C@H](N1)C(=O)OCC(C)(C)C2 [Example A502]

[reply]
0.01 to 0.1 µM
0.1 to 1 µM
> 10 µM
> 10 µM
1 to 10 µM

[ask] Field request: IC50 | item: CCn1c(-c2cccnc2[C@H](C)OC)c2c3cc(ccc31)-c1cc(O)cc(c1)C[C@H](NC(=O)C(C1CC1)C1CC1)C(=O)N1CCC[C@H](N1)C(=O)OCC(C)(C)C2 [Example A184]
[reply] 0.1 to 1 µM
